read-out: Basic fibroblast growth factor (bFGF), FGF2 (gene 2247); assay: BSK_MyoF_bFGF: BioMAP Diversity Plus: MyoF Assay for Basic fibroblast growth factor (bFGF) Biomarker Activity (AID 2284246); conditions: primary human lung fibroblasts
Active and inactive are the calls of the source. The calls were made as follows: active = hit-call score of the fitted dose curve at least 0.9, where 1 is the maximum; inactive = score below 0.9.
Select the correct class. Options are t for active, f for inactive and nothing else.

Answered cases to consult:
>  <molecule>
Nc1ccc(-c2ccc(N)c(Cl)c2)cc1Cl

>  <label.class>
f

$$$$
>  <molecule>
O=[N+]([O-])c1ccc2c3c(cccc13)CC2

>  <label.class>
f

$$$$
>  <molecule>
Nc1cccc2ccccc12

>  <label.class>
f

$$$$

Ask: What is the recorded call for this molecule in the test? OCc1ccco1
Reply: f

Ask: What is the recorded call for this molecule in the test? CCOP(=S)(OCC)Oc1ccc(S(C)=O)cc1 (stereo not given)
Reply: f

Ask: What is the recorded call for this molecule in the test? CCNc1nc(NC(C)(C)C)nc(SC)n1
Reply: f

Ask: What is the recorded call for this molecule in the test? Oc1ccc(-c2ccccc2)cc1
Reply: f

Ask: What is the recorded call for this molecule in the test? Oc1c(I)cc(I)cc1I
Reply: f

Ask: What is the recorded call for this molecule in the test? COC(=O)c1sccc1S(=O)(=O)NC(=O)Nc1nc(C)nc(OC)n1
Reply: f

Ask: What is the recorded call for this molecule in the test? CC1(C)Cc2cccc(O)c2O1
Reply: f

Ask: What is the recorded call for this molecule in the test? CCSC(C)CC1CC(=O)C(C(CC)=NOC/C=C/Cl)=C(O)C1 (stereo not given)
Reply: f

Ask: What is the recorded call for this molecule in the test? CCOP(=S)(OCC)SCCS(=O)(=O)CC
Reply: f

Ask: What is the recorded call for this molecule in the test? O=C(O)CCC(F)(C(F)(F)F)C(F)(F)F
Reply: f

Ask: What is the recorded call for this molecule in the test? BrCCBr
Reply: f

Ask: What is the recorded call for this molecule in the test? ClC1=C(Cl)[C@]2(Cl)[C@H]3[C@H]([C@H]4C=C[C@H]3C4)[C@@]1(Cl)C2(Cl)Cl
Reply: f

Ask: What is the recorded call for this molecule in the test? O=Cc1cccc(Oc2ccccc2)c1
Reply: f

Ask: What is the recorded call for this molecule in the test? C(=NC1CCCCC1)=NC1CCCCC1
Reply: t

Ask: What is the recorded call for this molecule in the test? COc1cc(OC)nc(NC(=O)NS(=O)(=O)c2ncccc2C(=O)N(C)C)n1
Reply: f

Ask: What is the recorded call for this molecule in the test? COP(=S)(OC)Oc1ccc(Sc2ccc(OP(=S)(OC)OC)cc2)cc1
Reply: f

Ask: What is the recorded call for this molecule in the test? CC(=O)C(Cl)C(=O)N(C)C (stereo not given)
Reply: f
